Experiment: Mouse pharmacokinetics (plasma, whole blood, brain)
Assay type: in vivo, male CD-1 mice
Measurement Parameters: male, CD-1, mouse; brain; oral, corrected doses 62, 50, 78, 49 mg/kg for 9, 12, 17, 19
Recorded measurements of AUC(0-t), one per entry
Property Name: AUC(0-t)

Molecule: O=[N+]([O-])c1cn2c(n1)[S+]([O-])CC(OCc1ccc(OCc3ccccc3)cc1)C2 (stereo not shown) [Compound 9]
Reported Result: 290 ng·h/mL
//
Molecule: O=[N+]([O-])c1cn2c(n1)OC[C@@H](NCc1ccc(OC(F)(F)F)cc1)C2 [Compound 17]
Reported Result: 50900 ng·h/mL
//
Molecule: O=[N+]([O-])c1cn2c(n1)[S+]([O-])CC(OCc1ccc(OC(F)(F)F)cc1)C2 (stereo not shown) [Compound 12]
Reported Result: 71200 ng·h/mL
//
Molecule: O=[N+]([O-])c1cn2c(n1)S(=O)(=O)CC(OCc1ccc(OC(F)(F)F)cc1)C2 (stereo not shown) [Compound 19]
Reported Result: 18800 ng·h/mL

###

Measured AUC(0-t), listed per entry.
Experiment: Mouse pharmacokinetics (plasma, whole blood, brain)
Assay type: in vivo, male CD-1 mice
Measurement Parameters: male, CD-1, mouse; plasma; intravenous, corrected doses 0.5, 1.1, 2.9, 2.0 mg/kg for 9, 12, 17, 19

Compound: O=[N+]([O-])c1cn2c(n1)OC[C@@H](NCc1ccc(OC(F)(F)F)cc1)C2
AUC(0-t) [ng·h/mL]: 418
//
Compound: O=[N+]([O-])c1cn2c(n1)[S+]([O-])CC(OCc1ccc(OC(F)(F)F)cc1)C2 (stereo not shown)
AUC(0-t) [ng·h/mL]: 2090
//
Compound: O=[N+]([O-])c1cn2c(n1)[S+]([O-])CC(OCc1ccc(OCc3ccccc3)cc1)C2 (stereo not shown)
AUC(0-t) [ng·h/mL]: 505
//
Compound: O=[N+]([O-])c1cn2c(n1)S(=O)(=O)CC(OCc1ccc(OC(F)(F)F)cc1)C2 (stereo not shown)
AUC(0-t) [ng·h/mL]: 1800

###

Experiment: Mouse liver microsomal stability
Assay type: in vitro ADME
Measurement Parameters: CD-1 mouse liver microsomes
Recorded remaining at 1 h values for a group of molecules are listed next.

Molecule: O=[N+]([O-])c1cn2c(n1)[S@+]([O-])C[C@H](OCc1ccc(OC(F)(F)F)cc1)C2 [Compound 27]
Unit Name: %
remaining at 1 h: 89
--
Molecule: O=[N+]([O-])c1cn2c(n1)[S+]([O-])CC(OCc1ccc(-c3ccc(OC(F)(F)F)cc3)cn1)C2 (centres unmarked) [Compound 35]
Unit Name: %
remaining at 1 h: 72
--
Molecule: O=[N+]([O-])c1cn2c(n1)[S@+]([O-])C[C@@H](OCc1ccc(OC(F)(F)F)cc1)C2 [Compound 24]
Unit Name: %
remaining at 1 h: 96
--
Molecule: O=[N+]([O-])c1cn2c(n1)[S@@+]([O-])C[C@@H](OCc1ccc(OC(F)(F)F)cc1)C2 [Compound 25]
Unit Name: %
remaining at 1 h: 93
--
Molecule: O=[N+]([O-])c1cn2c(n1)[S@@+]([O-])C[C@H](OCc1ccc(OC(F)(F)F)cc1)C2 [Compound 26]
Unit Name: %
remaining at 1 h: 26

###

Experiment: Mouse pharmacokinetics (plasma, whole blood, brain)
Format: in vivo, male CD-1 mice
Measurement Parameters: male, CD-1, mouse; brain; oral, corrected doses 62, 50, 78, 49 mg/kg for 9, 12, 17, 19; read-out: t1/2 (converted)
Parameter half-life: see the listing below.
Property Name: half-life

Compound: O=[N+]([O-])c1cn2c(n1)S(=O)(=O)CC(OCc1ccc(OC(F)(F)F)cc1)C2 (stereo not shown)
Reported Result: 180 min
//
Compound: O=[N+]([O-])c1cn2c(n1)OC[C@@H](NCc1ccc(OC(F)(F)F)cc1)C2
Reported Result: 78 min
//
Compound: O=[N+]([O-])c1cn2c(n1)[S+]([O-])CC(OCc1ccc(OC(F)(F)F)cc1)C2 (stereo not shown)
Reported Result: 414 min
//
Compound: O=[N+]([O-])c1cn2c(n1)[S+]([O-])CC(OCc1ccc(OCc3ccccc3)cc1)C2 (stereo not shown)
Reported Result: 192 min

###

Listed here: items and their measured bioavailability.
Experiment: Mouse pharmacokinetics (plasma, whole blood, brain)
Assay type: in vivo, male CD-1 mice
Measurement Parameters: male, CD-1, mouse, po; whole blood; from dose normalised AUClast values; read-out: F (oral bioavailability)
Experimental: In order to determine the suitability of the more permeable hits for in vivo efficacy studies, we first measured their aqueous solubilities, and their tendencies to metabolise, following a 1 h incubation with CD-1 mouse liver S9 subcellular fractions.[14] […]
Property Name: bioavailability (%)

Compound: O=[N+]([O-])c1cn2c(n1)[S+]([O-])CC(OCc1ccc(OC(F)(F)F)cc1)C2 (stereo not shown)
Property Name: bioavailability
Unit Name: %
Reported Result: 52

Compound: O=[N+]([O-])c1cn2c(n1)S(=O)(=O)CC(OCc1ccc(OC(F)(F)F)cc1)C2 (stereo not shown)
Property Name: bioavailability
Unit Name: %
Reported Result: 37

Compound: O=[N+]([O-])c1cn2c(n1)[S+]([O-])CC(OCc1ccc(OCc3ccccc3)cc1)C2 (stereo not shown)
Property Name: bioavailability
Unit Name: %
Reported Result: 0.8

Compound: O=[N+]([O-])c1cn2c(n1)OC[C@@H](NCc1ccc(OC(F)(F)F)cc1)C2
Property Name: bioavailability
Unit Name: %
Reported Result: 100

###

Experiment: Mouse pharmacokinetics (plasma, whole blood, brain)
Assay type: in vivo, male CD-1 mice
Measurement Parameters: male, CD-1, mouse; plasma; oral, corrected doses 62, 50, 78, 49 mg/kg for 9, 12, 17, 19
Property Name: AUC(0-t) (µg·h/mL)

Molecule: O=[N+]([O-])c1cn2c(n1)OC[C@@H](NCc1ccc(OC(F)(F)F)cc1)C2
Property Name: AUC(0-t)
Reported Result: 20.5
//
Molecule: O=[N+]([O-])c1cn2c(n1)[S+]([O-])CC(OCc1ccc(OCc3ccccc3)cc1)C2 (stereo not shown)
Property Name: AUC(0-t)
Reported Result: 0.869
//
Molecule: O=[N+]([O-])c1cn2c(n1)S(=O)(=O)CC(OCc1ccc(OC(F)(F)F)cc1)C2 (stereo not shown)
Property Name: AUC(0-t)
Reported Result: 18.7
//
Molecule: O=[N+]([O-])c1cn2c(n1)[S+]([O-])CC(OCc1ccc(OC(F)(F)F)cc1)C2 (stereo not shown)
Property Name: AUC(0-t)
Reported Result: 51.9

###

Experiment: Mouse pharmacokinetics (plasma, whole blood, brain)
Assay type: in vivo, male CD-1 mice
Measurement Parameters: male, CD-1, mouse; whole blood; oral, corrected doses 62, 50, 78, 49 mg/kg for 9, 12, 17, 19
Recorded Cmax by entry

Compound: O=[N+]([O-])c1cn2c(n1)OC[C@@H](NCc1ccc(OC(F)(F)F)cc1)C2
Unit Name: ng/mL
Cmax: 26000

Compound: O=[N+]([O-])c1cn2c(n1)[S+]([O-])CC(OCc1ccc(OC(F)(F)F)cc1)C2 (stereo not shown)
Unit Name: ng/mL
Cmax: 8600

Compound: O=[N+]([O-])c1cn2c(n1)S(=O)(=O)CC(OCc1ccc(OC(F)(F)F)cc1)C2 (stereo not shown)
Unit Name: ng/mL
Cmax: 3000

Compound: O=[N+]([O-])c1cn2c(n1)[S+]([O-])CC(OCc1ccc(OCc3ccccc3)cc1)C2 (stereo not shown)
Unit Name: ng/mL
Cmax: 110

###

The entries below come with measured Cmax values attached.
Experiment: Mouse pharmacokinetics (plasma, whole blood, brain)
Assay type: in vivo, male CD-1 mice
Measurement Parameters: male, CD-1, mouse; plasma; oral, corrected doses 62, 50, 78, 49 mg/kg for 9, 12, 17, 19
Property Name: Cmax (ng/mL)

Molecule: O=[N+]([O-])c1cn2c(n1)[S+]([O-])CC(OCc1ccc(OC(F)(F)F)cc1)C2 (stereo not shown) [Compound 12]
Property Name: Cmax
Reported Result: 9300
--
Molecule: O=[N+]([O-])c1cn2c(n1)OC[C@@H](NCc1ccc(OC(F)(F)F)cc1)C2 [Compound 17]
Property Name: Cmax
Reported Result: 12000
--
Molecule: O=[N+]([O-])c1cn2c(n1)S(=O)(=O)CC(OCc1ccc(OC(F)(F)F)cc1)C2 (stereo not shown) [Compound 19]
Property Name: Cmax
Reported Result: 2300
--
Molecule: O=[N+]([O-])c1cn2c(n1)[S+]([O-])CC(OCc1ccc(OCc3ccccc3)cc1)C2 (stereo not shown) [Compound 9]
Property Name: Cmax
Reported Result: 200

###

Experiment: Mouse pharmacokinetics (plasma, whole blood, brain)
Assay type: in vivo, male CD-1 mice
Measurement Parameters: male, CD-1, mouse; brain; intravenous, corrected doses 0.5, 1.1, 2.9, 2.0 mg/kg for 9, 12, 17, 19; read-out: t1/2 (converted)

Molecule: O=[N+]([O-])c1cn2c(n1)[S+]([O-])CC(OCc1ccc(OC(F)(F)F)cc1)C2 (stereo not shown) [Compound 12]
half-life / h: 2.3

Molecule: O=[N+]([O-])c1cn2c(n1)[S+]([O-])CC(OCc1ccc(OCc3ccccc3)cc1)C2 (stereo not shown) [Compound 9]
half-life / h: 1.6

Molecule: O=[N+]([O-])c1cn2c(n1)OC[C@@H](NCc1ccc(OC(F)(F)F)cc1)C2 [Compound 17]
half-life / h: 0.26

Molecule: O=[N+]([O-])c1cn2c(n1)S(=O)(=O)CC(OCc1ccc(OC(F)(F)F)cc1)C2 (stereo not shown) [Compound 19]
half-life / h: 14
